TEST: yeast display, Sf9 membrane polyspecificity reagent, FACS + sequencing; frameworks hold sequencing errors
PROPERTY LABEL: polyreactivity (PSR sort gate)

INPUT SEQUENCE	READING
QVQLVESGGGLVQAGGSLRLICAASGVNAMGWYRQAPGKEREFVAAITSIGGSTYYADSVKGRFTISRDNAKNSVYLQMNSLKPEDTAVYYCNTDRGPVKVSPLYESWGQGTQVTVSS	low polyreactivity
QVQLVESGGGLVQAGGSLRLSCAASGSIFYVYAMGGYRQAPGKERELVAAISKSGGSTYYADSVKGRFTISRDNAKNTVYLQMNRLKPEDTAVYYCAAYFSYGSIIEDYWGQGTQVTVSS	low polyreactivity
QVQLVESGGGLVQAGGSLRLSCAASGLIFYYYAMGGYRQAPGTQRELVACITGGDSTNYADSVKGRFTISRDNAKNTVYLQMNSLKPEDTAVYYCAAEFYGSSFGYRTYDYYYWGQGTEVTVSS	low polyreactivity
QVQLVESVGGLVQAGGSLRLSCAASGGIFYKYAMGWYRQAPGNERELVAAITGRGGSTNYADSVKGRFTISRDNSKNTVYLQMNSLKPEDNAVYYCAADLRLYSSQDNDYWGQGTQVTVSS	low polyreactivity
QVQLVESGGGLVQAGGSLRLSCAASGYTFASNAMGWYRQAPGKERELVAAITRGGSTNYADSVKGRFTISRDNAKNTVYLQMNSLKPEDTAVYYCAAPRYRHTRKGGYWGQGTQVTVSS	low polyreactivity
QVQLVESGGCLVQAGGSLRLSCAASGRTIRVYAMGWYRQAPGKARELVASITRAGGTYADSVKGRFTISRDIAKNPDYLQMNSLKPEDTAVYFCNARWQRSTGGRQRYDYWGQGTQVTVSS	high polyreactivity
QVQLVDSGGGLVQAGGSLRLSCAASGSTFTSYAMGWYRQAPGKERELVAAITGSGGRTYYADSVKGRFTISRDNAKNTVYLQMNSLKPEDTAVYYCAARKVRTVYQSRGNYWGQGTLVTVSS	high polyreactivity
QVQLVESGGGLVQAGGSLRLTCAASGRTFTIYAMGWYRQAPGKERELVAAISSSSGSTYYADSVKGRFPISRDNAKNTVYLQKNSLKPEDTAVYYCAVKLSGQAAQRRYDYWGQGTQVTVSS	high polyreactivity
QVQLVESGGGLVQAGGSLRLSCAASGFTFVRYAMGWYRQAPGKERELVAGISRRGGSTYYADSVKGRFTISRDNAKNTVYLQMNSLKPEDTAVYYCAAKPIYYSRGYYWGQGTQVTVSS	high polyreactivity
QVQLVESGGGLLQAGVSLRLSCASSGRIIDRNAMGWYRQAPGKERELVAAISSSGSTNYADSVKGRFTISRDNAKNTVYLQMNSLKPEDTAVYYCDARWRSVLAAGTRPVSFDYWGQGTQVTVSS	low polyreactivity
QVQLVESGGGLVQAGGSLRLSCAASGRIFKWYAMGWYRQAPGKERELVAAITSGGGSTYYADSVKGRFTISRDNAKNTVYLQMNSLKPEDTAVYYCNSWSSYGYDYWGQGTQVTVSS	high polyreactivity

###

TEST: yeast display, Sf9 membrane polyspecificity reagent, FACS + sequencing; frameworks hold sequencing errors
PROPERTY LABEL: polyreactivity (PSR sort gate)

INPUT SEQUENCE	PROPERTY LABEL	READING
QVQLVESGGALVQAGGSLRLSCAASGLTFIAYALGWYRQAPGKERELVASIDSGGGTNYADSVKGRFTISRDNAKNTVYLQMNSLKREDTAVYYCAAESPLYWVDDFESGWRYYYWGQGTHVTVSS	polyreactivity (PSR sort gate)	low polyreactivity
QVQLVESGGGLVQAGGSLRLSCAASGRIFGINAMGWYRQAPGKERELVAAITWSGDGTYDADSVKGRFTISRDNAKNTVYLQMNSLKPEDTAVYYCAKQLPEISQMDYWGQGTQVTVSS	polyreactivity (PSR sort gate)	low polyreactivity
QVQLVESGGGLVQAGGSLRLSCAASGSIFGRNAMGWYRQAPGKEREIVAAISQRGGRTYYADSVKGRFTISRDNAKNTVYLQMNRLKPEDTAVYYCAATYTRVPNRFYYWGQGTQVTVSS	polyreactivity (PSR sort gate)	high polyreactivity
QVQLVESGGGLVQAGGSLRLSCAASGYTFIDNAMGWYRQAPGKERELVAAISWSVDRTYYADSVKGRFTISRDNAKNTVYLQMNSLKPEDTAVYYCAAVHWWSSSLRMYYWGQGTQVTVSS	polyreactivity (PSR sort gate)	low polyreactivity
QVQIVESGGGLVQAGGSLRLSCAASGRTVVYNSMGWYRQAPGKERELVAAITRSGDSSYYADSVKGRFSISRDNAKNPVYLQMNSLKPEDTAVYYCNAVSKRYWLMDYWGQGTQVTVSS	polyreactivity (PSR sort gate)	high polyreactivity
QVQLVESGGGLVQAGGSLRLSCAASGRTFGPYAMGWSRQAPGKERELVAAITWSGGSTYYADSVKGRFTISRDNAKNTVYLQMNSLKPEDTAVYYCAAKFSIWTLKKYYYWGQGTQVTVSS	polyreactivity (PSR sort gate)	high polyreactivity
QVQLVESGGGLVQAGGSLRLSCAASGRIFNLYAMGWYRQAPGKERELVAAISSGGSTYYADSVKGRFTISRDNAKNTVYLQMNSLKPEDTAVYYCAAKNGDRYARGYWGQGTQVTVSS	polyreactivity (PSR sort gate)	high polyreactivity
QVQLVDSGGGLVQAGGSLRLSCAASGYTFPSKTMGWYRQAPGKERELVAAISGGGRTYYADSVKGRFTISRDNAKNTVYLQMNCLKPEDSAVYYCAKDSWYTQNRYNYWGQGTQVNVSS	polyreactivity (PSR sort gate)	low polyreactivity
QVQLVESGGGLVQAGGSLRLSCAASGRIFRRYTMGWYRQAPGKERELVAAISSGGTTYYADSVKGRFTISRDNAKNTVYLQMNSLKPEDTAVYYCAAPWRSSIPHYEYWGQGTQVTVSS	polyreactivity (PSR sort gate)	high polyreactivity
QVQLVESGGGLVQAGGSLRLSCAASGSIFELNAMGWYRQAPGKEMELVAAIRWRTGRTYYADSVKGRFTISRDNAKNTVYLLMNSLKPEDTAVYYCNADVTSLTRVHGRFIVSDYDYWGQGTQVTVSS	polyreactivity (PSR sort gate)	low polyreactivity
QVQLVESGGGLVQAGGSLRLSCAASGSTFASNAMGWYRQAPGKERELVAAIDWTGASTYYADSVKGRFTISRDNAKNTVYLQMNSLKPEDTAVYYCNADEYWNSRTQGYNYWGQGTQVTVSS	polyreactivity (PSR sort gate)	low polyreactivity
